Hello, the source for this data is patent US20220380375A1, in case you need it.

target: Ba/F3 KIF5B-RET^V804M cells (Homo sapiens, UniProt P07949, V804M, cells depend on it); construct: Ba/F3 KIF5B-RET^V804M IC50 (nM); other: CellTiter-Glo, 72 hrs; fused on or other part: P33176 (Kinesin-1 heavy chain); assay: Cytotoxicity assay (CellTiter-Glo), Ba/F3 KIF5B-RET V804M; format: cell-based; details: CellTiter-Glo, 72 hrs; read-out: Ba/F3 KIF5B-RET^V804M IC50
Sequence (P07949 whole entry V804M, the tested form may be a part): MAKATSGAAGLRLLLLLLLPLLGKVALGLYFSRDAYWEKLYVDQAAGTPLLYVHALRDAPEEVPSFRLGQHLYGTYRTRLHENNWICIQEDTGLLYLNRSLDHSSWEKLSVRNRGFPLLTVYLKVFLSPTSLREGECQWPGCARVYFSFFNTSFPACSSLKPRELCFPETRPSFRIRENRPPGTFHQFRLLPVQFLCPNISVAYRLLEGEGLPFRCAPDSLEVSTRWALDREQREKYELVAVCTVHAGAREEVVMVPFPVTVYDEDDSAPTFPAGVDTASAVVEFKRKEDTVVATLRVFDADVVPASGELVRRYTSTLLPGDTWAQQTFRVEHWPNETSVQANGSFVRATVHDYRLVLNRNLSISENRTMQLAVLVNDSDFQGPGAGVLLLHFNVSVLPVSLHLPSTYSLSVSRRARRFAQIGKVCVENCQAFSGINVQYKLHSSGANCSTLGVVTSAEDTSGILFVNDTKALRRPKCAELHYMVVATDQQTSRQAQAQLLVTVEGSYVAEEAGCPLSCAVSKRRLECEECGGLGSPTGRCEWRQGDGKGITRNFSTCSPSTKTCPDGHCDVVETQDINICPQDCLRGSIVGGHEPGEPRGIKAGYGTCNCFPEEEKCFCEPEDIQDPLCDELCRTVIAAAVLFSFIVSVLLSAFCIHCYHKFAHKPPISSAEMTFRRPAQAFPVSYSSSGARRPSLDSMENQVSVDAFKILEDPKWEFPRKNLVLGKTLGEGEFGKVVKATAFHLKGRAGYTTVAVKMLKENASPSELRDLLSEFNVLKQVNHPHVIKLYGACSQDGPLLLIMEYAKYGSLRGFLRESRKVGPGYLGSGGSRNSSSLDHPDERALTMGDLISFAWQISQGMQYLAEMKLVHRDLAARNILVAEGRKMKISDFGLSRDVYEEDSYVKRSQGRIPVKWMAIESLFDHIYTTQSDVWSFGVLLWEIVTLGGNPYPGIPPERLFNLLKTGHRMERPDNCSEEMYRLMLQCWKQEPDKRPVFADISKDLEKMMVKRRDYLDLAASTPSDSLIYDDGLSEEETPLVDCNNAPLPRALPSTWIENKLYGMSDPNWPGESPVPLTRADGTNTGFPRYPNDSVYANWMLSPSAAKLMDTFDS
Recorded GI50 by entry
assay_endpoint: GI50

molecule="CC(C)n1nc(-c2ccc(CC(=O)Nc3cc(C(C)(C)C(F)(F)F)no3)cc2)c2c(N)ncnc21 [Compound T-8]" assay_endpoint=GI50 measured_result="3.6 nM"
molecule="CC(C)c1nc(-c2ccc(CC(=O)Nc3cc(C(C)(C)C(F)(F)F)on3)cc2)c2c(N)ncnn12 [Compound T-10]" assay_endpoint=GI50 measured_result="11.7 nM"
molecule="CC(C)c1cc(-c2ccc(CC(=O)Nc3cc(C(C)(C)C(F)(F)F)on3)cc2)c2c(N)ncnn12 [Compound T-5]" assay_endpoint=GI50 measured_result="12.9 nM"
molecule="CC(C)n1cc(-c2ccc(CC(=O)Nc3cc(C(C)(C)C(F)(F)F)on3)cc2)c2c(N)ncnc21 [Compound T-3]" assay_endpoint=GI50 measured_result="3.21 nM"
molecule="CC(C)n1nc(-c2ccc(CC(=O)Nc3cc(C(C)(C)C(F)(F)F)on3)cn2)c2c(N)ncnc21 [Compound T-7]" assay_endpoint=GI50 measured_result="3.42 nM"
molecule="[2H]C([2H])([2H])C(n1nc(-c2ccc(CC(=O)Nc3cc(C(C)(C)C(F)(F)F)no3)cc2)c2c(N)ncnc21)C([2H])([2H])[2H] [Compound T-11]" assay_endpoint=GI50 measured_result="3.63 nM"

----------
Entries and their pIC50
molecular target: RET V804M (Homo sapiens, UniProt P07949, V804M); assay: Inhibition of kinase, RET V804M (HTRF KinEASE-TK)
Sequence (P07949 29-1114 V804M): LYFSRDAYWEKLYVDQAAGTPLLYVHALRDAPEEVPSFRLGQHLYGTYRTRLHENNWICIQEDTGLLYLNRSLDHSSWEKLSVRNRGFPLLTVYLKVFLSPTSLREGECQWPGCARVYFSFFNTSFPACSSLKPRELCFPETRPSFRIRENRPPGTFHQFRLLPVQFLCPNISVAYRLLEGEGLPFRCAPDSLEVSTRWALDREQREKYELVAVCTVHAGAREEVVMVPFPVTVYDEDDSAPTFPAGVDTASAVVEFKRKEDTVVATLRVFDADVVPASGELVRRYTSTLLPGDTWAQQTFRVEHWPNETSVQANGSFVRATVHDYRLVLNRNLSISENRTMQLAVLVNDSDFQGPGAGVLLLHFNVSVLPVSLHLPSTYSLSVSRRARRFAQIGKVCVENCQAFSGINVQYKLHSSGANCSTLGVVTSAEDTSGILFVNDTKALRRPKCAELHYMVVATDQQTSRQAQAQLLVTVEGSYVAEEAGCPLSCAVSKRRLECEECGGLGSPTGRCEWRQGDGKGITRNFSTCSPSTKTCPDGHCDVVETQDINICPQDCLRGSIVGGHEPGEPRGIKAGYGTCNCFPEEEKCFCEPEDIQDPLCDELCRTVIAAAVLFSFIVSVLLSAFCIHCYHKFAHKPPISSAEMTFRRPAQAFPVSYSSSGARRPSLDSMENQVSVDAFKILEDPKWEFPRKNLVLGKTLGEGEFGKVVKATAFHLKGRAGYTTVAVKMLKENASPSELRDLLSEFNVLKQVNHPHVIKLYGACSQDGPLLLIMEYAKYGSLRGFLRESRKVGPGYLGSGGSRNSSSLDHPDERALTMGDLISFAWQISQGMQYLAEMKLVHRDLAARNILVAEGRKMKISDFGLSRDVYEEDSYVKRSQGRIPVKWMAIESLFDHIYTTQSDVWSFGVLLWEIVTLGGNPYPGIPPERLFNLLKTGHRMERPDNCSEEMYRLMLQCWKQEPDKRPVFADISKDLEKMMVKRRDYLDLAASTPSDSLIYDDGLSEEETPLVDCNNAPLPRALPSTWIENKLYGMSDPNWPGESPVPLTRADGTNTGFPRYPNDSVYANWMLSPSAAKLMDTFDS
pIC50: −log10 of the molar value.
assay_endpoint: pIC50

compound="[2H]C([2H])([2H])C(n1nc(-c2ccc(CC(=O)Nc3cc(C(C)(C)C(F)(F)F)no3)cc2)c2c(N)ncnc21)C([2H])([2H])[2H] [Compound T-11]" test_target="RET V804M (Homo sapiens, UniProt P07949, V804M)" measured_result="8.00 to 9.00"
compound="CC(C)n1nc(-c2ccc(CC(=O)Nc3cc(C(C)(C)C(F)(F)F)on3)cn2)c2c(N)ncnc21 [Compound T-7]" test_target="RET V804M (Homo sapiens, UniProt P07949, V804M)" measured_result="8.00 to 9.00"
compound="CC(C)n1nc(-c2ccc(NC(=O)Nc3cc(C(C)(C)C(F)(F)F)on3)cc2)c2c(N)ncnc21 [Compound T-2]" test_target="RET V804M (Homo sapiens, UniProt P07949, V804M)" measured_result="8.00 to 9.00"
compound="CC(C)n1cc(-c2ccc(CC(=O)Nc3cc(C(C)(C)C(F)(F)F)on3)cc2)c2c(N)ncnc21 [Compound T-3]" test_target="RET V804M (Homo sapiens, UniProt P07949, V804M)" measured_result="8.00 to 9.00"

----------
Target: Ba/F3 FLT3-ITD^D835Y cells (Homo sapiens, UniProt P36888, D835Y, cells depend on it, form not given)
Construct: Ba/F3 FLT3-ITD^D835Y IC50 (nM); other: CellTiter-Glo, 72 hrs
Sequence (P36888 1-993 D835Y): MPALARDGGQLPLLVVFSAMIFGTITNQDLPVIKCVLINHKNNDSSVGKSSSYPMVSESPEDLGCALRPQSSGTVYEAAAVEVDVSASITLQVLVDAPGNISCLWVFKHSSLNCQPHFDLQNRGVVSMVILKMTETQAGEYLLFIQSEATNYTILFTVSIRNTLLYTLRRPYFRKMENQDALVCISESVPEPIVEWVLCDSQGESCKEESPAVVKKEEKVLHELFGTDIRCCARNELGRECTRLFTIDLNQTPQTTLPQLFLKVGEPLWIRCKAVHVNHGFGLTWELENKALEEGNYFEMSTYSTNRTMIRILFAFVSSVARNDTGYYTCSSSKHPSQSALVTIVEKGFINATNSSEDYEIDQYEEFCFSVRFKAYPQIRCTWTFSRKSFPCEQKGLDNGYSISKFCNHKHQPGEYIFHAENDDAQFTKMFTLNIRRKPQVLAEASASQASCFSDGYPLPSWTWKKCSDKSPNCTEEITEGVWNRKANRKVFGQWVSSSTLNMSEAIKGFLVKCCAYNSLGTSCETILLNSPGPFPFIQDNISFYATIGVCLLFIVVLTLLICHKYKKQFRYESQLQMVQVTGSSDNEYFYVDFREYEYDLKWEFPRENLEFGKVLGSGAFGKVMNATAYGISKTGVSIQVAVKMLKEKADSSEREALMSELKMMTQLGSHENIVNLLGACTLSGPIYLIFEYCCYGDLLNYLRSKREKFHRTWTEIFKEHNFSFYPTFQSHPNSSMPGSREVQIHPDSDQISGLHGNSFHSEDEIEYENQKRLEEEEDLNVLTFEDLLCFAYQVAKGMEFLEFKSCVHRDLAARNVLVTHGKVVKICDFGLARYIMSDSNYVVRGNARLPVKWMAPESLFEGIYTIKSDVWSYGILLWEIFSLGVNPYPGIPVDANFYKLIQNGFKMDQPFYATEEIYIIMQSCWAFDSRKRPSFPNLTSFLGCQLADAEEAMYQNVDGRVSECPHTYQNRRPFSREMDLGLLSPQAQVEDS
Test: Cytotoxicity assay (CellTiter-Glo), Ba/F3 FLT3-ITD D835Y
Type: cell-based
Conditions: CellTiter-Glo, 72 hrs; read-out: Ba/F3 FLT3-ITD^D835Y IC50
Protocol: Inhibitory effects of example compounds on the activity of Ba/F3 parental generation, Ba/F3 KIF5B-RET, Ba/F3 KIF5B-RET^V804M, Ba/F3 KIF5B-RET^V804L, Ba/F3 KIF5B-RET^G810R, Ba/F3 FLT3-ITD, Ba/F3 FLT3-ITD^D835Y, Ba/F3 FLT3-ITD^F691L cells were determined. […] 1. Cells in the logarithmic growth phase were harvested and counted with a […]. Cell viability was detected by a trypan blue exclusion method, ensuring that cell viability was 90% or more; 2. […] 1. […] Luminescence value was read. […]
assay_endpoint: GI50

molecule=CC(C)n1nc(-c2ccc(NC(=O)Nc3cc(C(C)(C)C(F)(F)F)on3)cc2)c2c(N)ncnc21 assay_endpoint=GI50 measured_result="6.05 nM"
molecule=CC(C)n1nc(-c2ccc(CC(=O)Nc3cc(C(C)(C)C(F)(F)F)no3)cc2)c2c(N)ncnc21 assay_endpoint=GI50 measured_result="7.34 nM"
molecule=CC(C)c1nc(-c2ccc(CC(=O)Nc3cc(C(C)(C)C(F)(F)F)on3)cc2)c2c(N)ncnn12 assay_endpoint=GI50 measured_result="46.4 nM"
molecule=CC(C)n1nc(-c2ccc(CC(=O)Nc3cc(C(C)(C)C(F)(F)F)on3)c(F)c2)c2c(N)ncnc21 assay_endpoint=GI50 measured_result="9.6 nM"
molecule=[2H]C([2H])([2H])C(n1nc(-c2ccc(CC(=O)Nc3cc(C(C)(C)C(F)(F)F)no3)cc2)c2c(N)ncnc21)C([2H])([2H])[2H] assay_endpoint=GI50 measured_result="17.9 nM"
molecule=CC(C)n1nc(-c2ccc(CC(=O)Nc3cc(C(C)(C)C(F)(F)F)on3)cn2)c2c(N)ncnc21 assay_endpoint=GI50 measured_result="5.57 nM"
molecule="CC(C)n1nc(-c2ccc(NC(=O)Nc3cc(C(F)(F)F)ccc3F)cc2)c2c(N)ncnc21 [AD80, reference compound]" assay_endpoint=GI50 measured_result="30.1 nM"
molecule=[2H]C([2H])([2H])C(n1cc(-c2ccc(CC(=O)Nc3cc(C(C)(C)C(F)(F)F)on3)cc2)c2c(N)ncnc21)C([2H])([2H])[2H] assay_endpoint=GI50 measured_result="12.3 nM"
molecule=CC(C)n1cc(-c2ccc(CC(=O)Nc3cc(C(C)(C)C(F)(F)F)on3)cc2)c2c(N)ncnc21 assay_endpoint=GI50 measured_result="2.92 nM"
molecule=CC(C)c1nc(-c2ccc(CC(=O)Nc3cc(C(C)(C)C(F)(F)F)on3)cc2)c2c(N)nccn12 assay_endpoint=GI50 measured_result="23.1 nM"
molecule=CC(C)n1nc(-c2ccc(CC(=O)Nc3cc(C(C)(C)C(F)(F)F)on3)cc2)c2c(N)ncnc21 assay_endpoint=GI50 measured_result="14.4 nM"
molecule=CC(C)n1nc(-c2ccc(CC(=O)Nc3cc(C(C)(C)C(F)(F)F)no3)cn2)c2c(N)ncnc21 assay_endpoint=GI50 measured_result="46.9 nM"
molecule=CC(C)c1cc(-c2ccc(CC(=O)Nc3cc(C(C)(C)C(F)(F)F)on3)cc2)c2c(N)ncnn12 assay_endpoint=GI50 measured_result="35.8 nM"
